Give %DQ6-EBV Binding (PH1N1 motif) for every item shown.
Tested on: DQ0602
method: DQ0602 peptide competition binding assay (vs Bio-EBV epitope, DELFIA TRF)
experimentalConditions: Suppl Table 1, wild type pH1N1 motif; 40 μM competitor vs 1 μM Bio-EBV, 25 nM DQ0602, pH 4.6, 3 days 37 °C, duplicate; <25% strong, 25–50% weak binder

[[record]]
substance = "MASQGTKRSY[E]QMETGGERQ"
measured = "71.8%"

[[record]]
substance = "NTSLPFQNIH[P]ITIGKCPKY"
measured = "56.53%"

[[record]]
substance = "NNAKEIGNGC[F]EFYHKCDNT"
measured = "79.28%"

[[record]]
substance = "VGKEFNHLEK[R]IENLNKKVD"
measured = "80.71%"

[[record]]
substance = "LQRRRFVQNA[L]NGNGDPNNM"
measured = "83.1%"


Could you tell me %DQ6-EBV Binding (PH1N1 motif) for each of these substances? They are listed below.
1. QRRRFVQNAL[N]GNGDPNNMD
2. NALNGNGDPN[N]MDRAVKLYK
3. LEALMEWLKT[R]PILSPLTKG

Response:
1: 66.28%; 2: 21.69%; 3: 31.61%

###

Test system: DQ0602
method: DQ0602 peptide competition binding assay (vs Bio-EBV epitope, DELFIA TRF)
experimentalConditions: Suppl Table 1, motif in Pandemrix; 40 μM competitor vs 1 μM Bio-EBV, 25 nM DQ0602, pH 4.6, 3 days 37 °C, duplicate; <25% strong, 25–50% weak binder
Give %DQ6-EBV Binding (PANDEMRIX motif) for every item shown.
Answers are plain numbers, in %.

Example entries and their recorded answers appear below.
[[record]]
substance = "LEVLMEWLKT[R > I]PILSPLTKG"
unittext = "%"
measured = 51.58

[[record]]
substance = "NALNGNGDPN[N > D]MDKAVKLYR"
unittext = "%"
measured = 27.47

[[record]]
substance = "QNALNGNGDP[N > D]NMDKAVKLY"
unittext = "%"
measured = 6.87

[[record]]
substance = "VGKEFNHLEK[R > I]IENLNKKVD"
unittext = "%"
measured = 42.31

[[record]]
substance = "MASQGTKRSY[E > Q]QMETDGERQ"
unittext = "%"
measured = 78.07


// moving on: another record for %DQ6-EBV Binding (PANDEMRIX motif)
Request: Give the measured %DQ6-EBV Binding (PANDEMRIX motif) of QRRRFVQNAL[N > D]GNGDPNNMD .
Response: 77.89

###

Give %DQ6-EBV Binding (PH1N1 motif) for every item shown.
Tested on: DQ0602
method: DQ0602 peptide competition binding assay (vs Bio-EBV epitope, DELFIA TRF)
experimentalConditions: Suppl Table 1, wild type pH1N1 motif; 40 μM competitor vs 1 μM Bio-EBV, 25 nM DQ0602, pH 4.6, 3 days 37 °C, duplicate; <25% strong, 25–50% weak binder
One number for each entry, in %.

Could you tell me %DQ6-EBV Binding (PH1N1 motif) for each of these substances? They are listed below.
1. DPNNMDRAVK[L]YKKLKREIT
2. QVVSLMRPNE[N]PAHKSQLVW

Response:
67.01
31.89

Request: Give the measured %DQ6-EBV Binding (PH1N1 motif) of `QGRGVFELSD[E]KATNPIVPS` .
Response: 39.96

###

System: DQ0602
method: DQ0602 peptide competition binding assay (vs Bio-EBV epitope, DELFIA TRF)
experimentalConditions: Suppl Table 1, motif in Pandemrix; 40 μM competitor vs 1 μM Bio-EBV, 25 nM DQ0602, pH 4.6, 3 days 37 °C, duplicate; <25% strong, 25–50% weak binder
Threshold check on %DQ6-EBV Binding (PANDEMRIX motif): at or above 70% gives 1 (yes), strictly below gives 0 (no).

[[record]]
substance = "QGRGVFELSD[E]KAASPIVPS"
labelvalue = "0 (no)"

[[record]]
substance = "LQRRRFVQNA[L > P]NGNGDPNNM"
labelvalue = "1 (yes)"

[[record]]
substance = "NTSLPFQNIH[P > Q]ITIGKCPKY"
labelvalue = "0 (no)"


Request: Hi, just wondering whether RTTIMAAFNG[N > D]TEGRTSDMR shows %DQ6-EBV Binding (PANDEMRIX motif) of 70% or higher.
Response: 0 (no)

Request: Hi, just wondering whether NNAKEIGNGC[F > Y]EFYHKCDNT shows %DQ6-EBV Binding (PANDEMRIX motif) of 70% or higher.
Response: 1 (yes)

Request: Hi, just wondering whether QVYSLIRPNE[N > D]PAHKSQLVW shows %DQ6-EBV Binding (PANDEMRIX motif) of 70% or higher.
Response: 0 (no)

###

Give %DQ6-EBV Binding (X179A motif) for every item shown.
System: DQ0602
method: DQ0602 peptide competition binding assay (vs Bio-EBV epitope, DELFIA TRF)
experimentalConditions: Suppl Table 1, reference motif of X179A; 40 μM competitor vs 1 μM Bio-EBV, 25 nM DQ0602, pH 4.6, 3 days 37 °C, duplicate; <25% strong, 25–50% weak binder
Answers are plain numbers, in %.

Example entries and their recorded answers appear below.
[[record]]
substance = "QNALNGNGDP[N]NMDKAVKLY"
assaytarget = "DQ0602"
metric = "%DQ6-EBV Binding (X179A motif)"
unittext = "%"
measured = 6.01

[[record]]
substance = "LQRRRFVQNA[L]NGNGDPNNM"
assaytarget = "DQ0602"
metric = "%DQ6-EBV Binding (X179A motif)"
unittext = "%"
measured = 83.1

[[record]]
substance = "DPNNMDKAVK[L]YRKLKREIT"
assaytarget = "DQ0602"
metric = "%DQ6-EBV Binding (X179A motif)"
unittext = "%"
measured = 73.65

[[record]]
substance = "QVYSLIRPNE[N]PAHKSQLVW"
assaytarget = "DQ0602"
metric = "%DQ6-EBV Binding (X179A motif)"
unittext = "%"
measured = 48.19

[[record]]
substance = "QGRGVFELSD[E]KAASPIVPS"
assaytarget = "DQ0602"
metric = "%DQ6-EBV Binding (X179A motif)"
unittext = "%"
measured = 14.93


Could you tell me %DQ6-EBV Binding (X179A motif) for each of these substances? They are listed below.
1. NNAKEIGNGC[F]EFYHKCDNT
2. LEVLMEWLKT[R]PILSPLTKG

Response:
79.28
116.06

Could you tell me %DQ6-EBV Binding (X179A motif) for each of these substances? They are listed below.
1. NALNGNGDPN[N]MDKAVKLYR
2. NTSLPFQNIH[P]ITIGKCPKY
3. VGKEFNHLEK[R]IENLNKKVD
4. QRRRFVQNAL[N]GNGDPNNMD
5. MASQGTKRSY[E]QMETDGERQ

Response:
[32.79, 56.53, 80.71, 66.28, 67.56]
